# measurement notes: Half-life in BALB/c mouse at 5 mg/kg, po measured upto 24 hrs by LC-MS/MS analysis
# Assay type: ADME, organism-based
# measurement parameters: in vivo
recorded metric: half-life (h)
Give bare numbers, in h.

Recorded half-life of `OCCN1CCC[C@@H](Nc2nnc(-c3ccc4occc4c3O)c3c2C2CCC3CC2)C1` , please. 4.74
